Tested on: Dugesia japonica
Experiment: loss of heat-induced scrunching incidence (% planarians (vehicle-normalised)); higher = higher incidence or increase relative to vehicle control
Details: exposure time: 15 min to 3 h acute
Where a name gives a salt, the structure may show the parent alone.
Exercise: for every item that follows, state its recorded loss of heat-induced scrunching incidence.
Answer with a bare number; do not write a unit.

Q: Tell me the measured loss of heat-induced scrunching incidence of CN(C)CCC[C@@]1(c2ccc(F)cc2)OCc2cc(C#N)ccc21 [escitalopram] (31.6 µM) , please.
Result: 37.5

Q: Tell me the measured loss of heat-induced scrunching incidence of CNCC[C@H](Oc1cccc2ccccc12)c1cccs1 [s-duloxetine] (100 µM) , please.
Result: 73.9

Q: Tell me the measured loss of heat-induced scrunching incidence of Cc1cc2c(s1)Nc1ccccc1N=C2N1CCN(C)CC1 [olanzapine] (3.16 µM) , please.
Result: 45.8

Q: Tell me the measured loss of heat-induced scrunching incidence of O=C(CCCN1CCC(O)(c2ccc(Br)cc2)CC1)c1ccc(F)cc1 [bromperidol] (100 µM) , please.
Result: 28.6

Q: Tell me the measured loss of heat-induced scrunching incidence of O=C(CCCN1CC=C(n2c(=O)[nH]c3ccccc32)CC1)c1ccc(F)cc1 [droperidol] (100 µM) , please.
Result: 73.9

Q: Tell me the measured loss of heat-induced scrunching incidence of CNCC[C@H](Oc1cccc2ccccc12)c1cccs1 [s-duloxetine] (31.6 µM) , please.
Result: 65.2

Q: Tell me the measured loss of heat-induced scrunching incidence of Cc1cc2c(s1)Nc1ccccc1N=C2N1CCN(C)CC1 [olanzapine] (10 µM) , please.
Result: 58.3

Q: Tell me the measured loss of heat-induced scrunching incidence of O=C1CCc2ccc(OCCCCN3CCN(c4cccc(Cl)c4Cl)CC3)cc2N1 [aripiprazole] (100 µM) , please.
Result: 78.3

Q: Tell me the measured loss of heat-induced scrunching incidence of CN[C@H]1CC[C@@H](c2ccc(Cl)c(Cl)c2)c2ccccc21 [sertraline hydrochloride] (31.6 µM) , please.
Result: 47.8

Q: Tell me the measured loss of heat-induced scrunching incidence of CN1CCN(C2=Nc3cc(Cl)ccc3Nc3ccccc32)CC1 [clozapine] (10 µM) , please.
Result: 75

Q: Tell me the measured loss of heat-induced scrunching incidence of CN1C(=O)CN=C(c2ccccc2)c2cc(Cl)ccc21 [diazepam] (1 µM) , please.
Result: 12.5

Q: Tell me the measured loss of heat-induced scrunching incidence of O=C(CCCN1CCC(O)(c2ccc(Cl)cc2)CC1)c1ccc(F)cc1 [haloperidol] (31.6 µM) , please.
Result: 5

Q: Tell me the measured loss of heat-induced scrunching incidence of CNCCC(Oc1ccc(C(F)(F)F)cc1)c1ccccc1 (stereo not drawn) [fluoxetine hydrochloride] (10 µM) , please.
Result: 8.7

Q: Tell me the measured loss of heat-induced scrunching incidence of O=C1CC2(CCCC2)CC(=O)N1CCCCN1CCN(c2ncccn2)CC1 [buspirone] (100 µM) , please.
Result: 57.1

Q: Tell me the measured loss of heat-induced scrunching incidence of CC(NC(C)(C)C)C(=O)c1cccc(Cl)c1 (stereo not drawn) [bupropion] (10 µM) , please.
Result: 4.17

* * *

System: Dugesia japonica
Assay: loss of heat-induced scrunching incidence (% planarians (vehicle-normalised)); higher = higher incidence or increase relative to vehicle control
Settings: exposure time: 15 min to 3 h acute
Counter-ions that a name gives are not always drawn.
OBSERVED_PROPERTY: loss of heat-induced scrunching incidence
Answer with a bare number; do not write a unit.

Q: Tell me the measured loss of heat-induced scrunching incidence of CNCCC(Oc1ccc(C(F)(F)F)cc1)c1ccccc1 (centres undefined) [fluoxetine hydrochloride] (31.6 µM) , please.
Result: 8.33

Q: Tell me the measured loss of heat-induced scrunching incidence of CNCCC(Oc1ccc(C(F)(F)F)cc1)c1ccccc1 (centres undefined) [fluoxetine hydrochloride] (1 µM) , please.
Result: 8.33

Q: Tell me the measured loss of heat-induced scrunching incidence of Cc1ncc2n1-c1ccc(Cl)cc1C(c1ccccc1F)=NC2 [midazolam] (100 µM) , please.
Result: 45.8

Q: Tell me the measured loss of heat-induced scrunching incidence of CNCC[C@H](Oc1cccc2ccccc12)c1cccs1 [s-duloxetine] (10 µM) , please.
Result: 8.33

* * *

System: Dugesia japonica
Assay: pharynx extrusion incidence (% planarians (vehicle-normalised)); higher = higher incidence or increase relative to vehicle control
Conditions: exposure time: 15 min to 3 h acute
Counter-ions that a name gives are not always drawn.
OBSERVED_PROPERTY: pharynx extrusion incidence
Answer with a bare number; do not write a unit.

Q: Report pharynx extrusion incidence for CNCCC(Oc1ccc(C(F)(F)F)cc1)c1ccccc1 (centres undefined) [fluoxetine hydrochloride] (100 µM) tested on Dugesia japonica.
Result: 0

Q: Report pharynx extrusion incidence for CNCC[C@H](Oc1cccc2ccccc12)c1cccs1 [s-duloxetine] (100 µM) tested on Dugesia japonica.
Result: 65.2

Q: Report pharynx extrusion incidence for CCCCNc1c(C(=O)OCC)c(C)nc2c1cnn2CC [tracazolate hydrochloride] (3.16 µM) tested on Dugesia japonica.
Result: 0

Q: Report pharynx extrusion incidence for CNCC[C@H](Oc1cccc2ccccc12)c1cccs1 [s-duloxetine] (3.16 µM) tested on Dugesia japonica.
Result: 0

* * *

Test system: Dugesia japonica
Test: C-shape incidence (% planarians (vehicle-normalised)); higher = higher incidence or increase relative to vehicle control
Settings: exposure time: 15 min to 3 h acute
Where a name gives a salt, the structure may show the parent alone.
OBSERVED_PROPERTY: C-shape incidence
Answer with a bare number; do not write a unit.

Q: Report C-shape incidence for CN1CCN(CCCN2c3ccccc3Sc3ccc(Cl)cc32)CC1 [prochloroperazine] (10 µM) tested on Dugesia japonica.
Result: 12.5

Q: Report C-shape incidence for O=C1CC2(CCCC2)CC(=O)N1CCCCN1CCN(c2ncccn2)CC1 [buspirone] (1 µM) tested on Dugesia japonica.
Result: 4.17

Q: Report C-shape incidence for CN1CCN(C2=Nc3cc(Cl)ccc3Nc3ccccc32)CC1 [clozapine] (1 µM) tested on Dugesia japonica.
Result: 0

Q: Report C-shape incidence for O=C(CCCN1CC=C(n2c(=O)[nH]c3ccccc32)CC1)c1ccc(F)cc1 [droperidol] (10 µM) tested on Dugesia japonica.
Result: 20.8

Q: Report C-shape incidence for CN(C)CCCN1c2ccccc2CCc2ccccc21 [imipramine] (3.16 µM) tested on Dugesia japonica.
Result: 0

Q: Report C-shape incidence for CN1CC(=O)N=C1NC(=O)Nc1cccc(Cl)c1 [fenobam] (178 µM) tested on Dugesia japonica.
Result: 0

Q: Report C-shape incidence for CN(C)CCC[C@@]1(c2ccc(F)cc2)OCc2cc(C#N)ccc21 [escitalopram] (1000 µM) tested on Dugesia japonica.
Result: 0

Q: Report C-shape incidence for O=C(O)/C=C\C(=O)O [maleic acid] (200 µM) tested on Dugesia japonica.
Result: 0

Q: Report C-shape incidence for CNCC[C@H](Oc1cccc2ccccc12)c1cccs1 [s-duloxetine] (3.16 µM) tested on Dugesia japonica.
Result: 0

Q: Report C-shape incidence for CN(C)CCC[C@@]1(c2ccc(F)cc2)OCc2cc(C#N)ccc21 [escitalopram] (316 µM) tested on Dugesia japonica.
Result: 0

Q: Report C-shape incidence for CNCC[C@H](Oc1cccc2ccccc12)c1cccs1 [s-duloxetine] (1 µM) tested on Dugesia japonica.
Result: 0

Q: Report C-shape incidence for CN1CCN(CCCN2c3ccccc3Sc3ccc(Cl)cc32)CC1 [prochloroperazine] (3.16 µM) tested on Dugesia japonica.
Result: 0

Q: Report C-shape incidence for CN[C@H]1CC[C@@H](c2ccc(Cl)c(Cl)c2)c2ccccc21 [sertraline hydrochloride] (1 µM) tested on Dugesia japonica.
Result: 0

Q: Report C-shape incidence for CC(NC(C)(C)C)C(=O)c1cccc(Cl)c1 (stereo not given) [bupropion] (10 µM) tested on Dugesia japonica.
Result: 0

Q: Report C-shape incidence for O=C1CCc2ccc(OCCCCN3CCN(c4cccc(Cl)c4Cl)CC3)cc2N1 [aripiprazole] (100 µM) tested on Dugesia japonica.
Result: 60.9

Q: Report C-shape incidence for Cc1cc2c(s1)Nc1ccccc1N=C2N1CCN(C)CC1 [olanzapine] (3.16 µM) tested on Dugesia japonica.
Result: 8.33

Q: Report C-shape incidence for CN(C)CCCC1(c2ccc(F)cc2)OCc2cc(C#N)ccc21 (stereo not given) [citalopram hydrobromide] (10 µM) tested on Dugesia japonica.
Result: 0

Q: Report C-shape incidence for Cc1ncc2n1-c1ccc(Cl)cc1C(c1ccccc1F)=NC2 [midazolam] (56.2 µM) tested on Dugesia japonica.
Result: 0

Q: Report C-shape incidence for CN1CCN(CCCN2c3ccccc3Sc3ccc(Cl)cc32)CC1 [prochloroperazine] (100 µM) tested on Dugesia japonica.
Result: 35

Q: Report C-shape incidence for CNCC[C@H](Oc1cccc2ccccc12)c1cccs1 [s-duloxetine] (31.6 µM) tested on Dugesia japonica.
Result: 34.8

Q: Report C-shape incidence for O=C(CCCN1CCC(O)(c2ccc(Cl)cc2)CC1)c1ccc(F)cc1 [haloperidol] (31.6 µM) tested on Dugesia japonica.
Result: 0

Q: Report C-shape incidence for CC(NC(C)(C)C)C(=O)c1cccc(Cl)c1 (stereo not given) [bupropion] (1000 µM) tested on Dugesia japonica.
Result: 0

Q: Report C-shape incidence for O=C(CCCN1CC=C(n2c(=O)[nH]c3ccccc32)CC1)c1ccc(F)cc1 [droperidol] (3.16 µM) tested on Dugesia japonica.
Result: 12.5

Q: Report C-shape incidence for O=C(CCCN1CC=C(n2c(=O)[nH]c3ccccc32)CC1)c1ccc(F)cc1 [droperidol] (100 µM) tested on Dugesia japonica.
Result: 4.35

Q: Report C-shape incidence for O=C1CCc2ccc(OCCCCN3CCN(c4cccc(Cl)c4Cl)CC3)cc2N1 [aripiprazole] (31.6 µM) tested on Dugesia japonica.
Result: 62.5

Q: Report C-shape incidence for O=C(CCCN1CCC(O)(c2ccc(Br)cc2)CC1)c1ccc(F)cc1 [bromperidol] (31.6 µM) tested on Dugesia japonica.
Result: 4.35

Q: Report C-shape incidence for CN1C(=O)CN=C(c2ccccc2)c2cc(Cl)ccc21 [diazepam] (100 µM) tested on Dugesia japonica.
Result: 62.5

Q: Report C-shape incidence for O=C1CC2(CCCC2)CC(=O)N1CCCCN1CCN(c2ncccn2)CC1 [buspirone] (10 µM) tested on Dugesia japonica.
Result: 0

Q: Report C-shape incidence for CN(C)CCCN1c2ccccc2CCc2ccccc21 [imipramine] (1 µM) tested on Dugesia japonica.
Result: 0

Q: Report C-shape incidence for CN1CCN(CCCN2c3ccccc3Sc3ccc(Cl)cc32)CC1 [prochloroperazine] (1 µM) tested on Dugesia japonica.
Result: 0

Q: Report C-shape incidence for O=C1CCc2ccc(OCCCCN3CCN(c4cccc(Cl)c4Cl)CC3)cc2N1 [aripiprazole] (1 µM) tested on Dugesia japonica.
Result: 0

Q: Report C-shape incidence for O=C1CC2(CCCC2)CC(=O)N1CCCCN1CCN(c2ncccn2)CC1 [buspirone] (31.6 µM) tested on Dugesia japonica.
Result: 0

Q: Report C-shape incidence for CN1CCN(CCCN2c3ccccc3Sc3ccc(Cl)cc32)CC1 [prochloroperazine] (31.6 µM) tested on Dugesia japonica.
Result: 34.8

Q: Report C-shape incidence for CCCCNc1c(C(=O)OCC)c(C)nc2c1cnn2CC [tracazolate hydrochloride] (3.16 µM) tested on Dugesia japonica.
Result: 0

Q: Report C-shape incidence for CN(C)CCCC1(c2ccc(F)cc2)OCc2cc(C#N)ccc21 (stereo not given) [citalopram hydrobromide] (316 µM) tested on Dugesia japonica.
Result: 0
